Biological target: T1, cynomolgus CD40 overexpressed on CHO-S cells (cynomolgus, UniProt G7PG38 21-278)
T1 construct: whole, on cells; also called cynomolgus CD40 expressing CHO cells
Assay: flow cytometry on CHO-S cells overexpressing cynomolgus CD40
Would you mind telling me the reported pEC50 of each entry?
One number for each entry, as −log10 of the molar value.

Known results for binders:
[
  {
    "binder": "ADI-55168 (antibody, human IgG1, kappa, V domains shown) VH: EVQLVESGGGLVQPGRSLRLSCAASGFTFDTYAMHWVRQAPGKGLEWVSGISWSSGSIHYADSVKGRFTISRDNAKNSLYLQMNSLRAEDTAVYYCAKDPTATTGARGYFDLWGRGTLVTVSS VL: DIQMTQSPSSVSASVGDRVTITCEASQVISSWLAWYQQKPGKAPKLLIYAASYLQSGVPSRFSGSGSGTDFTLTISSLQPEDFATYYCQQHSSFPPTFGGGTKVEIKR",
    "pEC50": 8.05
  },
  {
    "binder": "ADI-55142 (antibody, human IgG1, kappa, V domains shown) VH: QVQLVESGGGVVQPGRSLRLSCAASGFTFEKYGMHWVRQAPGKGLEWVAVISYEGEKKYYADSVKGRFTISRDNSKNTLYLQMNSLRAEDTAVYYCARDTSRGHDIWGQGTMVTVSS VL: EIVLTQSPGTLSLSPGERATLSCRASQSVSYSYLAWYQQKPGQAPRLLIYGASSRANGIPDRFSGSGSGTDFTLTISRLEPEDFAVYYCSDYADYPPFTFGGGTKVEIKR",
    "pEC50": 8.20
  }
]

Please find the next binder below.
Supply recorded pEC50 for ADI-55140 (antibody, human IgG1, kappa, V domains shown) VH: QVQLVESGGGVVQPGRSLRLSCAASGFTFEKYGMHWVRQAPGKGLEWVAVIHYEGSIKYYADSVKGRFTISRDNSKNTLYLQMNSLRAEDTAVYYCARDTSRGHDIWGQGTMVTVSS VL: EIVLTQSPGTLSLSPGERATLSCRASQSVSYDYLAWYQQKPGQAPRLLIYGASTRANGIPDRFSGSGSGTDFTLTISRLEPEDFAVYYCGEYADYPPFTFGGGTKVEIKR here.
8.07

Data provenance: patent US20260265391A1
